# TEST_TARGET: Vascular endothelial growth factor receptor 3 (Homo sapiens);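 further: mean FLT4 inhibition, averaged across replicates, from the GSK PKIS kinase inhibitor screen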
# CONDITION_SET: at 1 µM
RESULT_TYPE: inhibition (%)
Output spec: scalar in %, unitless text.

Some molecules with known inhibition results, for comparison:
NC(=O)Cc1ccccc1Oc1nccc(-c2c(-c3ccc(F)cc3)ncn2C2CCNCC2)n1    -0.28
Fc1ccc(-c2ncn(C3CCNCC3)c2-c2ccnc(Oc3ccc4c(c3)OCO4)n2)cc1    5.76
CCS(=O)(=O)c1ccc(OC)c(Nc2ncc(-c3cccc(-c4ccccc4F)c3)o2)c1    82.8
Fc1ccc(-c2ncn(C3CCNCC3)c2-c2ccnc(Oc3ccc(F)c(F)c3)n2)cc1    -7.54

## Input For the molecule shown here, CN1CCN(CCCNc2nc3ccc(Oc4ccc(NC(=O)Nc5cc(C(F)(F)F)ccc5F)cc4)cc3[nH]2)CC1 , give the reported inhibition.
## Output -0.49

* * *

Below, each of the compounds is paired with its reported inhibition value.
# TEST_TARGET: Ribosomal protein S6 kinase alpha-6 (Homo sapiens)
# CONDITION_SET: at 0.1 µM
Output spec: scalar in %, unitless text.

Some compounds with known inhibition results, for comparison:
COc1ccc(-c2ccc3c(NC(=O)C4CC4)n[nH]c3n2)cc1    0.83
CCc1nccc2c1nc(-c1nonc1N)n2CC    -0.93
CN(c1ccc(NC(=O)Nc2c(Cl)cccc2Cl)cc1)c1ccnc(Nc2cccc(CS(C)(=O)=O)c2)n1    0.45

## Input For the compound shown here, CN(C)c1ccc2c(c1)/C(=C/Nc1ccc(S(N)(=O)=O)cc1)C(=O)N2 , give the reported inhibition.
## Output 4.28

## Input Queued: COc1cc(Nc2ncc(-c3ccccc3)o2)cc(OC)c1OC
## Output 0.47

* * *

# TEST_TARGET: Fibroblast growth factor receptor 4 (Homo sapiens);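 further: values are mean percent inhibition of FGFR4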
# CONDITION_SET: at 0.1 µM
RESULT_TYPE: inhibition (%)
Output spec: scalar in %, unitless text.

Some molecules with known inhibition results, for comparison:
CS(=O)(=O)CCNCc1ccc(-c2ccc3ncnc(Nc4ccc(OCc5ccccc5)c(Br)c4)c3c2)o1    -4.71
Clc1ccc(CNc2nccc(-c3cnn4ncccc34)n2)cc1    4.74
NCc1ccc(-n2c(-c3nonc3N)nc3cnccc32)cc1    -4.29
O=C(Nc1n[nH]c2cc(-c3ccccc3)ccc12)C1CC1    -0.91
COc1cc(Nc2ncc3c(C)nc(-c4cccc(C(F)(F)F)c4)n3n2)cc(OC)c1OC    0.66

## Input For the molecule shown here, FC(F)(F)c1cccc(Nc2nccc(-c3cnn4nc(-c5ccccc5)ccc34)n2)c1 , give the reported inhibition.
## Output -0.29

## Input Queued: C#Cc1cccc(Nc2ncnc3ccc(OCCCCNCCS(C)(=O)=O)cc23)c1
## Output -4.44

* * *

# TEST_TARGET: Tyrosine-protein kinase HCK (Homo sapiens) (UniProt P08631);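 further: values are mean inhibition of HCK, taken from the GSK_PKIS kinase profiling screen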
# Sequence (P08631 2-526 limits assumed): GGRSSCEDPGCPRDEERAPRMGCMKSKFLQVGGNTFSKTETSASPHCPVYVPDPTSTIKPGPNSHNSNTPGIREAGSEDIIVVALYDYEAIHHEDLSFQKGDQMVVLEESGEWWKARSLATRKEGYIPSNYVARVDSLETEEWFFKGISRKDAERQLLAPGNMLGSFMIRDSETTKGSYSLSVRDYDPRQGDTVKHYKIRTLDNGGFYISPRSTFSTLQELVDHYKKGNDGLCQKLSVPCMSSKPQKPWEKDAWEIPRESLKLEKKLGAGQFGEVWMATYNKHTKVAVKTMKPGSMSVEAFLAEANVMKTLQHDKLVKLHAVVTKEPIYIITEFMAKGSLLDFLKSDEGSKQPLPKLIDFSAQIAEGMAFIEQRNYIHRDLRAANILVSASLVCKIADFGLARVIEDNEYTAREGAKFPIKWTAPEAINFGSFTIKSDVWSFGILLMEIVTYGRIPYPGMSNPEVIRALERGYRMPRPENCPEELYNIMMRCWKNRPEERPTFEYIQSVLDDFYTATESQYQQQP
# CONDITION_SET: at 0.1 µM
Below, each of the compounds is paired with its reported inhibition value.
Output spec: scalar in %, unitless text.

Some compounds with known inhibition results, for comparison:
NS(=O)(=O)c1ccc(N/N=C2\C(=O)Nc3ccc(C(=O)NCCCn4ccnc4)cc32)cc1    5.3
CS(=O)(=O)CCNCc1ccc(-c2ccc3ncnc(Nc4ccc(OCc5ccccc5)c(Br)c4)c3c2)o1    7.33
C[C@@H](Oc1cc(-n2cnc3ccc(OCC4CCN(C)CC4)cc32)sc1C(N)=O)c1ccccc1Cl    8.11
O=C1Nc2ccccc2/C1=C/Nc1ccc(-n2cncn2)cc1    5.82

## Input For the compound shown here, NS(=O)(=O)c1ccc(N/N=C2\C(=O)Nc3ccc(-c4cnco4)cc32)cc1 , give the reported inhibition.
## Output 5.08

## Input Queued: Fc1ccc(-c2nc3n(c2-c2ccncc2)CCS3)cc1
## Output 4.65

## Input Queued: COc1ccc2cc(-c3c(-c4ccncc4)nc(-c4ccc([S+](C)[O-])cc4C)n3C)ccc2c1 (stereo not given)
## Output -0.56

## Input Queued: N#Cc1ccc(Oc2nccc(-c3c(-c4ccc(F)cc4)ncn3C3CCNCC3)n2)cc1
## Output 5.66

## Input Queued: COc1cccc(/C=N/Nc2ncnc3c2cnn3-c2cccc(OC)c2)c1
## Output 4.96

## Input Queued: O=C(NCC1CC1)c1ccc(-c2cccc(C(=O)NC3CC3)c2)cc1
## Output 2.5

## Input Queued: O=C(Nc1n[nH]c2nc(-c3ccco3)ccc12)C1CC1
## Output 3.22

## Input Queued: Fc1ccc(-c2ncn(C3CCNCC3)c2-c2ccnc(Oc3ccc(F)c(F)c3)n2)cc1
## Output 5.11

## Input Queued: CN(C)CCOc1ccc(-c2cc(-c3ccc4c(c3)CCC4=NO)c(-c3ccncc3)o2)cc1
## Output -2.29

## Input Queued: C#Cc1cccc(Nc2ncnc3ccc(OCCCCNCCS(C)(=O)=O)cc23)c1
## Output 11.1

## Input Queued: O=C(Nc1ccc(Oc2ccc3[nH]c(NC(=O)c4ccccc4)nc3c2)cc1)Nc1cc(C(F)(F)F)ccc1F
## Output 7.45

* * *

Below, each of the compounds is paired with its reported inhibition value.
# TEST_TARGET: Fibroblast growth factor receptor 2 (Homo sapiens)
# CONDITION_SET: at 0.1 µM
Output spec: scalar in %, unitless text.

Some compounds with known inhibition results, for comparison:
O=C(Nc1ccc(Oc2ccc3[nH]c(NC(=O)c4ccccc4)nc3c2)cc1)Nc1cc(C(F)(F)F)ccc1F    2.19
CCS(=O)(=O)c1ccc(OC)c(Nc2ncc(-c3ccccc3Cl)o2)c1    6.83
CS(=O)(=O)CCNCc1ccc(-c2ccc3ncnc(Nc4ccc(OCc5ccccc5)c(Br)c4)c3c2)o1    1.07
CN(C)c1ccc2c(c1)/C(=C/Nc1ccc(S(N)(=O)=O)cc1)C(=O)N2    5.56

# ---- query compound ----
## Input Test system Fibroblast growth factor receptor 2 (Homo sapiens); read-out inhibition; what value for COc1cc2ncn(-c3cc(OCCc4ccccc4)c(C(N)=O)s3)c2cc1OC ?;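 further: values are mean percent inhibition of FGFR2 kinase, measured within the GSK Published Kinase Inhibitor Set (PKIS) screening panel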
## Output 1.97

* * *

# TEST_TARGET: MAP/microtubule affinity-regulating kinase 3 (Homo sapiens) (UniProt P27448);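 further: reported values are averaged percent inhibition of MARK3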
# Sequence (P27448 whole entry, looked up): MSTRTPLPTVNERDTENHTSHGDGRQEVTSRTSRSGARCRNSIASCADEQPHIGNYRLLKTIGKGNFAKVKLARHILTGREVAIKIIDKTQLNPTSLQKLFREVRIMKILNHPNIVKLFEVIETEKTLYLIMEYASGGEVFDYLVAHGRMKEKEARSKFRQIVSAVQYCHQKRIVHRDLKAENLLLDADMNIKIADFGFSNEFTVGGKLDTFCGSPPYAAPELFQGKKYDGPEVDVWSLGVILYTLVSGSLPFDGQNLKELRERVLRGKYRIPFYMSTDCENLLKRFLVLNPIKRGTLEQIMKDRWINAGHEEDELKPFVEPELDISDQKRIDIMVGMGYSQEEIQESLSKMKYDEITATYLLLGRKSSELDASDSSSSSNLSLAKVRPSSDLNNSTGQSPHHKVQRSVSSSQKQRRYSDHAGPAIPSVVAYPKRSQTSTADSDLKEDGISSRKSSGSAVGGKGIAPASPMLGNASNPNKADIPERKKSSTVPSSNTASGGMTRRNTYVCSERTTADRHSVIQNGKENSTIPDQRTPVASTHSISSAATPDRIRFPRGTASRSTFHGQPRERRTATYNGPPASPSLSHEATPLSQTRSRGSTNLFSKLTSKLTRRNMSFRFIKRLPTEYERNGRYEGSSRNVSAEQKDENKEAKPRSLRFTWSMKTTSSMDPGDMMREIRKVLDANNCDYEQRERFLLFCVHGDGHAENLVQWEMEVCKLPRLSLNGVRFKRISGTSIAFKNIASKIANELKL
# CONDITION_SET: at 1 µM
RESULT_TYPE: inhibition (%)
Output spec: scalar in %, unitless text.

Some compounds with known inhibition results, for comparison:
O=C(Nc1n[nH]c2nc(-c3ccco3)ccc12)C1CC1    1.53
O=C(Nc1n[nH]c2nc(-c3ccc(O)cc3)c(Br)cc12)C1CC1    8.75
CN(C)c1ccc2c(c1)/C(=C/Nc1ccc(S(N)(=O)=O)cc1)C(=O)N2    32.7
COc1cc(C)c(N(C)C(=O)CN(C)C)cc1Nc1nc(Nc2cccc(F)c2C(N)=O)c2cc[nH]c2n1    4.11
CCc1ccc(Oc2nccc(-c3c(-c4ccc(F)cc4)ncn3C3CCNCC3)n2)cc1    7.86

# ---- query compound ----
## Input For the compound shown here, CS(=O)(=O)CCNCc1ccc(-c2ccc3ncnc(Nc4ccc(OCc5ccccc5)c(Br)c4)c3c2)o1 , give the reported inhibition.
## Output -0.13

* * *

# TEST_TARGET: Tyrosine-protein kinase receptor TYRO3 (Homo sapiens) (UniProt Q06418)
# Sequence (whole entry): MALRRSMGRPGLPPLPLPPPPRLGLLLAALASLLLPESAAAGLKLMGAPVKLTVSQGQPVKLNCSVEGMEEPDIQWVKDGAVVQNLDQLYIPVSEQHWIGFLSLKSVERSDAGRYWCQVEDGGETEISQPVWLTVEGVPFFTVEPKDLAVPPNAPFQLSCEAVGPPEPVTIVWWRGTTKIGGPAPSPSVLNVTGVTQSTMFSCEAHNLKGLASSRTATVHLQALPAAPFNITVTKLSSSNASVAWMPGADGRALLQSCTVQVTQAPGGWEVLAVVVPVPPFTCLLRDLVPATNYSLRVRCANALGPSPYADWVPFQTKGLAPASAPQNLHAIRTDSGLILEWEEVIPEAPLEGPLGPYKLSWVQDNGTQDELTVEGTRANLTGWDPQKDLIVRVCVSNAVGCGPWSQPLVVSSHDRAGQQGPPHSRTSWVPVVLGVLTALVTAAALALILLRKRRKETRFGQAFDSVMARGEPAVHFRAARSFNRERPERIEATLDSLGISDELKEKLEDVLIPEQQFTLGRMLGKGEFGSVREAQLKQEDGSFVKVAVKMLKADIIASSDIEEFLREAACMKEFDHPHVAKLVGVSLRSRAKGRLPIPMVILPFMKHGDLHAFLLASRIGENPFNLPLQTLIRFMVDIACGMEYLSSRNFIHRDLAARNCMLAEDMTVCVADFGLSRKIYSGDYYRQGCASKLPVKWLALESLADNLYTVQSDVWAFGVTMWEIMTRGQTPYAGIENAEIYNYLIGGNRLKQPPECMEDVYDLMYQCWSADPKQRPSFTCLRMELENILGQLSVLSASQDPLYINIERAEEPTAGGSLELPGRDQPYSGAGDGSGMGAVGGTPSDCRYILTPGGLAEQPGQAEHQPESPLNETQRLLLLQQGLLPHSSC
# CONDITION_SET: at 1 µM
# Description: GSK_PKIS: TYRO3 mean inhibition at 1 uM [Nanosyn]
RESULT_TYPE: inhibition (%)
Output spec: scalar in %, unitless text.

COc1ccc(-c2ccc3c(NC(=O)C4CC4)n[nH]c3n2)cc1    21.7

## Input For the compound shown here, FC(F)(F)c1cccc(Nc2nccc(-c3cnn4nc(-c5ccccc5)ccc34)n2)c1 , give the reported inhibition.
## Output 0.62

## Input Queued: CN(c1ccc(NC(=O)Nc2c(Cl)cccc2Cl)cc1)c1ccnc(Nc2cccc(CS(C)(=O)=O)c2)n1
## Output 17.4

## Input Queued: COc1cc(Nc2ncc3c(C)nc(-c4cccc(C(F)(F)F)c4)n3n2)cc(OC)c1OC
## Output 10.6

## Input Queued: NCc1ccc(-n2c(-c3nonc3N)nc3cnccc32)cc1
## Output 3.1
